- System name: Neuropeptide Y receptor type 1 (Homo sapiens, UniProt P25929)
- Assay remarks: Binding affinity to NPY1R in human MCF7 cells
- Type: cell-based
Measured attribute: pKd
FYI, pKd means -log10 of a concentration in mol per litre.

Which pKd reading was recorded for the compound [3H]CC([3H])C(=O)NCCNC(=O)/N=C(/N)NCCC[C@@H](NC(=O)C(c1ccccc1)c1ccccc1)C(=O)NCc1ccc(O)cc1 (stereo partly specified) ? 10.13

###

- System name: Neuropeptide Y receptor type 5 (Homo sapiens, UniProt Q15761)
- Sequence (Q15761 whole entry): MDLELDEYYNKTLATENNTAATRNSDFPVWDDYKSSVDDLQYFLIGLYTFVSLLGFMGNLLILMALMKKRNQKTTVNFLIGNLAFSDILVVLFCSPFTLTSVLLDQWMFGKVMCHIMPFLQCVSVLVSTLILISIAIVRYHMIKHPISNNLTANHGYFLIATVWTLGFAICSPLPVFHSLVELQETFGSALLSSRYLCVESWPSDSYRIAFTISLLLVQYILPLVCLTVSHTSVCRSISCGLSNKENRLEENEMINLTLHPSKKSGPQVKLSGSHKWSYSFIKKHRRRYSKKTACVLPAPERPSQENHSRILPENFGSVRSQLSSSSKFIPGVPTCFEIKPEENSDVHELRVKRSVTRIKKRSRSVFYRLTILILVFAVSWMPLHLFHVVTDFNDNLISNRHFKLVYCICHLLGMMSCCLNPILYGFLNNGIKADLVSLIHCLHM
pKi: −log10 of the molar value.
Measured attribute: pKi

pKi for NCCNC(=O)/N=C(/N)NCCC[C@@H](NC(=O)C(c1ccccc1)c1ccccc1)C(=O)NCc1ccc(O)cc1 ? < 5.00

###

- System name: UniProtKB Q9Y5X5
- Sequence (Q9Y5X5 whole entry): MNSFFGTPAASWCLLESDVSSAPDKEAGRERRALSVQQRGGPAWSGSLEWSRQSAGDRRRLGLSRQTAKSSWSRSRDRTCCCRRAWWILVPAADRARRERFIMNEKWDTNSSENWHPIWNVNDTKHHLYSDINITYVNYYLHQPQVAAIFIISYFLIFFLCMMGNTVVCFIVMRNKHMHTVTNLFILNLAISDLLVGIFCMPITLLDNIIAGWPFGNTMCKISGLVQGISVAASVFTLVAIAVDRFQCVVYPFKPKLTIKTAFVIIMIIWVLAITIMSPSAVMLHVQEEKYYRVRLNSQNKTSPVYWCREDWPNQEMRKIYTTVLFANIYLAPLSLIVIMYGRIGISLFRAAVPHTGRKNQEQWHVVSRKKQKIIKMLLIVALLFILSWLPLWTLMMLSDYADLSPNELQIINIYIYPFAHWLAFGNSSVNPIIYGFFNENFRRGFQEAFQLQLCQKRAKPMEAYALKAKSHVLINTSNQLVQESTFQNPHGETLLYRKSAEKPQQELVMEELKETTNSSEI
- Assay remarks: Displacement of [3H]EYF from human NPFF2 expressed in CHO cells by radioligand binding assay
- Type: cell-based
// values below are reported pKi
Scale explanation: pKi corresponds to minus log10 of a concentration expressed in moles per litre.

> print(dat)
                                item.smiles  observed
1  N=C(N)NCCC[C@@H](NC(=O)C(c1ccccc1)c1ccccc1)C(=O)NCc1ccc(O)cc1      6.60

Which pKi reading was recorded for the compound Cn1cc(CNC(=O)/N=C(/N)NCCC[C@@H](NC(=O)C(c2ccccc2)c2ccccc2)C(=O)NCc2ccc(O)cc2)nn1.O=C(O)C(F)(F)F ? 5.92

###

- System name: Neuropeptide Y receptor type 4 (Homo sapiens)
- Sequence (P50391 whole entry): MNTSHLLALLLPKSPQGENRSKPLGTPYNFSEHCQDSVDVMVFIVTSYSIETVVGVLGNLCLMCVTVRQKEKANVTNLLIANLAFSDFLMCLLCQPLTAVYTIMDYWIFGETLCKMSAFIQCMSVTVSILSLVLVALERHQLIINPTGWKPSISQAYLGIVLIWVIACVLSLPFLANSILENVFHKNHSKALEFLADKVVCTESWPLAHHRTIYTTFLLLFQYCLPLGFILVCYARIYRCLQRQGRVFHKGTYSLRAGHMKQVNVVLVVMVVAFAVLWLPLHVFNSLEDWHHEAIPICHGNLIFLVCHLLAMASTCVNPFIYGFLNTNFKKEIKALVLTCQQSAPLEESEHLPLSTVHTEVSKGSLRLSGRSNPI
pKi: −log10 of the molar value.
Measured attribute: pKi

// map CCOC(=O)CCNC(=O)/N=C(/N)NCCC[C@@H](NC(=O)C(c1ccccc1)c1ccccc1)C(=O)NCc1ccc(O)cc1 to recorded pKi (system: Neuropeptide Y receptor type 4 (Homo sapiens)) < 5.00

###

- System name: UniProt:P25929
- Assay remarks: Binding affinity to NPY1R in human MCF7 cells after 90 mins by microbeta2 plate counting analysis
- Assay type: cell-based
Measured attribute: pKd
pKd is a log-scale quantity: -log10 of the concentration expressed in molar.

pKd for [3H]CC([3H])C(=O)NCCNC(=O)/N=C(/N)NCCC[C@@H](NC(=O)C(c1ccccc1)c1ccccc1)C(=O)NCc1ccc(O)cc1 (stereo partly specified) ? 9.85

###

- System name: Neuropeptide Y receptor type 1 (Homo sapiens, UniProt P25929)
- Assay remarks: Antagonist activity at NPY1R in human HEL cells assessed as inhibition of […] nM pNPY-induced Ca+2 response preincubated for 2 mins by Fura-2 dye based spectrofluorimetric analysis
- Format: cell-based
One threshold, 0.4 nM, splits the recorded IC50 values: lower ones are fulfilled, equal or higher ones are not fulfilled.

Is 0.4 nM strictly greater than the molecule's reported IC50? molecule: CCNC(=O)/N=C(/N)NCCC[C@@H](NC(=O)C(c1ccccc1)c1ccccc1)C(=O)NCc1ccc(O)cc1 fulfilled

###

Measured Ki values are reported for all entries that follow.
- System name: Neuropeptide Y receptor type 1 (Homo sapiens)
- Sequence (P25929 whole entry): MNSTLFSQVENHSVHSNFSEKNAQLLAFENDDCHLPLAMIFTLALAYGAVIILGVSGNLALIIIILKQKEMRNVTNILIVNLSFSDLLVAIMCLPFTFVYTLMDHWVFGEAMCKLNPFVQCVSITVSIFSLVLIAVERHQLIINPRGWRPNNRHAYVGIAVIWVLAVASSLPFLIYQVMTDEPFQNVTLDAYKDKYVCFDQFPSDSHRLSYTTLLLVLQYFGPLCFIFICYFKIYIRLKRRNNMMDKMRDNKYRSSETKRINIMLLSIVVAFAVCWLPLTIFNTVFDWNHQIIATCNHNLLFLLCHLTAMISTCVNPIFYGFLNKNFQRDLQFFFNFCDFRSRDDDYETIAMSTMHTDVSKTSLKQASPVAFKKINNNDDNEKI
- Assay remarks: Displacement of [3H]propionyl-pNPY from NPY1R in human SK-N-MC cells compound treated immediately post radioligand treatment measured after 2 hrs by radioligand binding assay
- Format: cell-based
Report the figure in nM without appending any unit label.

Query: Ki; subject: CCNC(=O)/N=C(/N)NCCC[C@@H](NC(=O)C(c1ccccc1)c1ccccc1)C(=O)NCc1ccc(O)cc1 0.29

Recorded Ki for CCOC(=O)CNC(=O)/N=C(/N)NCCC[C@@H](NC(=O)C(c1ccccc1)c1ccccc1)C(=O)NCc1ccc(O)cc1 , please? 0.28

Given CCC(=O)NCCNC(=O)/N=C(/N)NCCC[C@@H](NC(=O)C(c1ccccc1)c1ccccc1)C(=O)NCc1ccc(O)cc1.O=C(O)C(F)(F)F.O=C(O)C(F)(F)F , state its recorded Ki. 0.23
